Test: recombinant UMI read abundance after kanamycin selection (control-corrected) (log10(CPM+1)); higher = more efficient recombination; extreme values may be limits of the assay; sequences stand for … in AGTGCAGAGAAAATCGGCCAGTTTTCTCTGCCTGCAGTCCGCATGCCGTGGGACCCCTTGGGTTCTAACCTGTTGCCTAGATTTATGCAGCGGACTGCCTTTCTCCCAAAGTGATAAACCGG…AGGTTGGTTTCACT; site = the 11-nt donor;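 further: IS621 bridge recombinase in Escherichia coli cells against a fixed T5 target plasmid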
Hi there, I'd appreciate the recorded recombinant UMI read abundance (log10) for every entry that follows.
Enter the number alone.

So, TTTCGATCATGGACCGGTTTTCCCGGTAATCCGTATTTGGT (site TTTCGATCTAC) ? Its recombinant UMI read abundance (log10) was 0.00229

So, CTTCGAGCATGGACCGGTTTTCCCGGTAATCCGTATTTGCA (site CTTCGAGCTTG) ? Its recombinant UMI read abundance (log10) was 1.03

So, GAGTGGCCATGGACCGGTTTTCCCGGTAATCCGTATTTGCA (site GATTGGCCTTG) ? Its recombinant UMI read abundance (log10) was 0

So, TCAGAGACATGGACCGGTTTTCCCGGTAATCCGTATTTGCC (site TCAGAGACTGG) ? Its recombinant UMI read abundance (log10) was 1.58

So, AATGTCACATGGACCGGTTTTCCCGGTAATCCGTATTTGCT (site AATGTGACTAG) ? Its recombinant UMI read abundance (log10) was 0.0645

So, ATCTAAGCATGGACCGGTTTTCCCGGTAATCCGTATTTGAG (site ATCAAAGCTCT) ? Its recombinant UMI read abundance (log10) was 0.792

So, TTAGCTGCATGGACCGGTTTTCCCGGTAATCCGTATTTGCG (site TTAGCTGCTCA) ? Its recombinant UMI read abundance (log10) was 0.00643

So, GACGAACCATGGACCGGTTTTCCCGGTAATCCGTATTTGGT (site GACTAACCTAC) ? Its recombinant UMI read abundance (log10) was 0.0149

So, CGATTTACATGGACCGGTTTTCCCGGTAATCCGTATTTGCT (site CGATTTACTAG) ? Its recombinant UMI read abundance (log10) was 1.76
